# Tested Target: human α1G T-type channels (Homo sapiens, UniProt O43497)
# Construct: expressed in transfected cells
# Sequence (O43497 whole entry): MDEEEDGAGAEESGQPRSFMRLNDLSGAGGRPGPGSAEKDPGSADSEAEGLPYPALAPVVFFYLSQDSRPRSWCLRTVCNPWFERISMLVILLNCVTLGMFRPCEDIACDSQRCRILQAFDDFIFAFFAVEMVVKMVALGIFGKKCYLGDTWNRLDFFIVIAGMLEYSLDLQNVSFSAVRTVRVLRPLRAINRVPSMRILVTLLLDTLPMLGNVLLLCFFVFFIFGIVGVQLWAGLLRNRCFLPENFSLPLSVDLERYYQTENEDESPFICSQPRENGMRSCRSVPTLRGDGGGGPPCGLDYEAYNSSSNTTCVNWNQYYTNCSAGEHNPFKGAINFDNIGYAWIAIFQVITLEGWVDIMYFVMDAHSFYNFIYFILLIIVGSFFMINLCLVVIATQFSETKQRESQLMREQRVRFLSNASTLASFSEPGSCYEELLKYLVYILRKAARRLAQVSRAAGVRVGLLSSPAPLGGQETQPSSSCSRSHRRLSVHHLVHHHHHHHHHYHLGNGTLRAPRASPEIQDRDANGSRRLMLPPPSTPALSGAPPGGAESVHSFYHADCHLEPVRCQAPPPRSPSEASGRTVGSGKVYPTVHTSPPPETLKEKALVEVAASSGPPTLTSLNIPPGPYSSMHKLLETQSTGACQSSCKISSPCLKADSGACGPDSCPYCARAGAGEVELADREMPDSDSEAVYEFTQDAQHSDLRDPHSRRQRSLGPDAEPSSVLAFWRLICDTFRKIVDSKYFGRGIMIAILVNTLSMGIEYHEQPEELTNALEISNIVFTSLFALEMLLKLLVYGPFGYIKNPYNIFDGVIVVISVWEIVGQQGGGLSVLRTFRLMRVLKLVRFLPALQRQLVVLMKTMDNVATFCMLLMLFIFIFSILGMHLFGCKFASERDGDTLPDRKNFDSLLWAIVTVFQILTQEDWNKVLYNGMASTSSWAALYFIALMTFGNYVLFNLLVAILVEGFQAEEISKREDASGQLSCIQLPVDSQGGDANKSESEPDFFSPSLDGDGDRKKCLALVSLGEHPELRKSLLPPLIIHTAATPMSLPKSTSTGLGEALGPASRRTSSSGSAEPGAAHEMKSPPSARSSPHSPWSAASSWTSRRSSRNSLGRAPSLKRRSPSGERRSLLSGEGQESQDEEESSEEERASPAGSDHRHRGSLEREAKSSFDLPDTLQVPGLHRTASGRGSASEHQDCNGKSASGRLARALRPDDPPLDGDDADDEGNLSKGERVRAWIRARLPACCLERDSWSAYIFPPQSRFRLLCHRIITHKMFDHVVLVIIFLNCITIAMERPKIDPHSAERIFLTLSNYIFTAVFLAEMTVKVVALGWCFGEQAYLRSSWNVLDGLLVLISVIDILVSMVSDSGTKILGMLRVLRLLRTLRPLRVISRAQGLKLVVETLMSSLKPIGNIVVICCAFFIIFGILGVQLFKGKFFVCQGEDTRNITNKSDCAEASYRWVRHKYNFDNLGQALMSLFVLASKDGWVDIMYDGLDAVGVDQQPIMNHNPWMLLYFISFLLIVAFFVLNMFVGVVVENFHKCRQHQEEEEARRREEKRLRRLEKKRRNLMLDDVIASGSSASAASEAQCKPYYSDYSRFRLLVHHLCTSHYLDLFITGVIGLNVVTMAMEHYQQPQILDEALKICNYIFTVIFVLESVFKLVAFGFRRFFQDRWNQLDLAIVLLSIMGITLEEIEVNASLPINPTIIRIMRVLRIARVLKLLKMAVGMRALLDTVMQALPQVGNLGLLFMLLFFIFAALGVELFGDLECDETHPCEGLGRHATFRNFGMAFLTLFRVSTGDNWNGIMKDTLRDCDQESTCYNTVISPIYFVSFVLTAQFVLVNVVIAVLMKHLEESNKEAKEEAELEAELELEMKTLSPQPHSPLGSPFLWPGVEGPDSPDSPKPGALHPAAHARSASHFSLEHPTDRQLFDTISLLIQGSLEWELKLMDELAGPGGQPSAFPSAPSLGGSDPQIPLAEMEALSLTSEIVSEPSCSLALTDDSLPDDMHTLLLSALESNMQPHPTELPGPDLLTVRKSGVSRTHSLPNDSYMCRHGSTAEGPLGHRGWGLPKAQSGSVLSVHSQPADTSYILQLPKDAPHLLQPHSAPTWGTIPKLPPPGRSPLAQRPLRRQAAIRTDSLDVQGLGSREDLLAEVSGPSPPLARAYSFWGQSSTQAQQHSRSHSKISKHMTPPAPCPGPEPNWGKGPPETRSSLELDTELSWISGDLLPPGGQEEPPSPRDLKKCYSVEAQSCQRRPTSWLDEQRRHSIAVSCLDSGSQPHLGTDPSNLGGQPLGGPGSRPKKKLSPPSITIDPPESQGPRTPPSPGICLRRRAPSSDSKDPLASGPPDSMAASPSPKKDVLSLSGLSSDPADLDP
# Assay Details: Block of α1G T-type channels, whole-cell patch clamp in HEK cells
# Assay type: cell-based
# Experimental Conditions: inactivation protocol (voltage-dependent block); read-out: IC50 at −80 mV
Value Kind: IC50 (nM)

Molecule	IC50 / nM
O=C(CN(CC(=O)N(c1ccccc1)c1ccccc1)CC1CCN(C(c2ccccc2)c2ccccc2)C1)N(c1ccccc1)c1ccccc1 (centres unmarked)	5
O=C(COc1ccc(Cl)cc1)NCC1CCN(C(=O)CCCCC(c2ccc(F)cc2)c2ccc(F)cc2)C1 (centres unmarked)	12
O=C(NCC1CCN(C(c2ccccc2)c2ccccc2)C1)NC(c1ccccc1)c1ccccc1 (centres unmarked)	8
CN(Cc1cc(C(F)(F)F)cc(C(F)(F)F)c1)CC1CCN(C(=O)CCCCC(c2ccc(F)cc2)c2ccc(F)cc2)C1 (centres unmarked)	28
COc1c(C(C)(C)C)cc(C(=O)NCC2CCN(C(=O)CCCCC(c3ccc(F)cc3)c3ccc(F)cc3)C2)cc1C(C)(C)C (centres unmarked) [Compound P42]	59
CN(C(=O)CN(CC(=O)N(C)c1ccccc1)CC1CCN(C(c2ccccc2)c2ccccc2)C1)c1ccccc1 (centres unmarked)	227
O=C(CC(c1ccccc1)c1ccccc1)NCC1CCN(C(c2ccccc2)c2cccc(Cl)c2)C1 (centres unmarked)	21
COc1cc(CN(C)CC2CCN(C(=O)CCCCC(c3ccc(F)cc3)c3ccc(F)cc3)C2)cc(OC)c1OC (centres unmarked)	58
O=C(CC(c1ccccc1)c1ccccc1)N1CCC(CNC(c2ccccc2)c2ccccc2)C1 (centres unmarked) [Compound P2]	52
CC(C)(C)c1cc(C(=O)NCC2CCN(C(=O)CCCCC(c3ccc(F)cc3)c3ccc(F)cc3)C2)cc(C(C)(C)C)c1 (centres unmarked)	29

1: Cc1cc(C)cc(NCC(=O)NCC2CCN(C(=O)CCCCC(c3ccc(F)cc3)c3ccc(F)cc3)C2)c1 (centres unmarked)
2: O=C(NCC1CCN(C(=O)CCCCC(c2ccc(F)cc2)c2ccc(F)cc2)C1)c1cc(C(F)(F)F)cc(C(F)(F)F)c1 (centres unmarked)
Given the two records 1 and 2 , choose the one whose IC50 value is lower. // return label of chosen record 2
(2: 8 nM, 1: 105 nM)

* * *

# Tested Target: rat brain N-type calcium channel subunits (α1B+α2δ+β1b) (Rattus norvegicus)
# Construct: expressed in transfected cells; host or cells: HEK 293
# Sequence (Q02294 whole entry): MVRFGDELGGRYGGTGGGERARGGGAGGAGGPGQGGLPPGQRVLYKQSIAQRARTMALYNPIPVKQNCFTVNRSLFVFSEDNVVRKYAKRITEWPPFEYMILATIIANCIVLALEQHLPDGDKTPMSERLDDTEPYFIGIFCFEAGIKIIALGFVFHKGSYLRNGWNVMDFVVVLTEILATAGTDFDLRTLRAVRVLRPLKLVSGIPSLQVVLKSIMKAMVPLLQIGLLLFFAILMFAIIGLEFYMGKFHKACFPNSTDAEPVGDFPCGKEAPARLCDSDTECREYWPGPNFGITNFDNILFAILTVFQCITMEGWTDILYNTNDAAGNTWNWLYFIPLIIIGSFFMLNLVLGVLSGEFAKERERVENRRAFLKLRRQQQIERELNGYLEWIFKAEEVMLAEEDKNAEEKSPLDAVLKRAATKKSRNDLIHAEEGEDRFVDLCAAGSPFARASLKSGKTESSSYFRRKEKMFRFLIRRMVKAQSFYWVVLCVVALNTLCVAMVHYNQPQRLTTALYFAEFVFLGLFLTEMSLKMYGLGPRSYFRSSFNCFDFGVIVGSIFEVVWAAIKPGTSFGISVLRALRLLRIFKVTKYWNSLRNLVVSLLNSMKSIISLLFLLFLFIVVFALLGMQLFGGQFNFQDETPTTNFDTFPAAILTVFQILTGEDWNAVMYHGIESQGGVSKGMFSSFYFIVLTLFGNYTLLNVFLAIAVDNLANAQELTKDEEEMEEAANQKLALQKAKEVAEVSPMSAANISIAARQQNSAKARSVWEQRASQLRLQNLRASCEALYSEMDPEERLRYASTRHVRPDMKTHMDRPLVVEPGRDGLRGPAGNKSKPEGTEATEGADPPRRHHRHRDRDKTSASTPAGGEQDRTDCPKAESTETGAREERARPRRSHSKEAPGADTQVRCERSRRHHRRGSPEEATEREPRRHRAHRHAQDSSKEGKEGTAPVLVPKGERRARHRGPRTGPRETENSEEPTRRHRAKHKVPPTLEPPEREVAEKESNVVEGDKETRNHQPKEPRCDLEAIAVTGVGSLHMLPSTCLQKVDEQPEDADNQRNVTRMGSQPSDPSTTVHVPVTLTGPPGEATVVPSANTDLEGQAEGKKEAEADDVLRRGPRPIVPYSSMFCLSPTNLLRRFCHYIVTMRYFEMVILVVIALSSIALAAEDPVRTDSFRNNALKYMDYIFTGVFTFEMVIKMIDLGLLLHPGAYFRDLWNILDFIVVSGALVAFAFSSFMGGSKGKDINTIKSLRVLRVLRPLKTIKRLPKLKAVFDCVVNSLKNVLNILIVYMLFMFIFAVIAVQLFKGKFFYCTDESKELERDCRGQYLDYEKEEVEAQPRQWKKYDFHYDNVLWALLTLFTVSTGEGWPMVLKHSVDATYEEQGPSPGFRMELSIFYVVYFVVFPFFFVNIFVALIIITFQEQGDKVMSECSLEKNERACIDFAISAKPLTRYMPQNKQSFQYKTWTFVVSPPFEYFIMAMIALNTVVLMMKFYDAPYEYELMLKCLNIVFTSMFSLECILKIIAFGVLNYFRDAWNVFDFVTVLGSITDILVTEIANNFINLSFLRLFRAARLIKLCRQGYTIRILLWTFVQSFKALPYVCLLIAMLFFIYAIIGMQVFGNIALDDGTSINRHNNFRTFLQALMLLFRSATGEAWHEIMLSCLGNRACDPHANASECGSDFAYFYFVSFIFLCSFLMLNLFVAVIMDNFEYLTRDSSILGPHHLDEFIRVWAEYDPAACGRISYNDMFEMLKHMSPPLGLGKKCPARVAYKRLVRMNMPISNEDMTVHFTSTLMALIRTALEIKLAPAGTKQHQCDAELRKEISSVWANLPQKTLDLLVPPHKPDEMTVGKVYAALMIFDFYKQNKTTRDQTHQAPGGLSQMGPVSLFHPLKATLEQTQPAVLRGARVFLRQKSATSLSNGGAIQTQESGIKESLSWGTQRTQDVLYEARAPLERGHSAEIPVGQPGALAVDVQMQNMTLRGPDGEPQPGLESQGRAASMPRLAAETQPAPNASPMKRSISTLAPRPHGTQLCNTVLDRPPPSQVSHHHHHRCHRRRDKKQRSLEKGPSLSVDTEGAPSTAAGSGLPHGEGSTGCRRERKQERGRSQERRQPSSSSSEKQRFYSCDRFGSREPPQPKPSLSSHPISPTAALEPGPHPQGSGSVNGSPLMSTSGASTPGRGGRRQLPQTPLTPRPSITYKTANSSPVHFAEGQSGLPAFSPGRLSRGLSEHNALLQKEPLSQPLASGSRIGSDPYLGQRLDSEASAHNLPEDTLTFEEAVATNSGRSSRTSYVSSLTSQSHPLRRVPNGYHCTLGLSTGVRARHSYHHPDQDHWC
# Assay Details: N-type calcium channel block, whole cell patch clamp in HEK 293 cells
# Type: cell-based
# Experimental Conditions: low frequency stimulation 0.067 Hz (tonic block), holding −80 mV to +10 mV, 5 mM Ba; read-out: IC50 at 0.067 Hz
Value Kind: IC50 (nM)

Compound	Tested Target	Test Value
CN(CCC(c1ccccc1)c1ccccc1)CC1CCN(C(c2ccccc2)c2ccccc2)C1 (stereo not shown)	rat brain N-type calcium channel subunits (α1B+α2δ+β1b) (Rattus norvegicus)	137
O=C(CC(c1ccc(F)cc1)c1ccc(F)cc1)NCC1CCN(C(c2ccccc2)c2ccccc2)C1 (stereo not shown)	rat brain N-type calcium channel subunits (α1B+α2δ+β1b) (Rattus norvegicus)	72

a: O=C(CC(c1ccc(F)cc1)c1ccc(F)cc1)NCC1CCN(C(c2ccccc2)c2ccc(F)cc2)C1 (stereo not shown)
b: COc1c(C(C)(C)C)cc(CNCC2CCN(CCCCCC(c3ccc(F)cc3)c3ccc(F)cc3)C2)cc1C(C)(C)C (stereo not shown)
Could you kindly indicate whether a or b has the higher IC50 value? // return label of chosen record a
(a: 76 nM, b: 39 nM)

* * *

# Tested Target: rat brain N-type calcium channel subunits (α1B+α2δ+β1b) (Rattus norvegicus)
# Construct: expressed in transfected cells; host or cells: HEK 293
# Assay Details: N-type calcium channel block, whole cell patch clamp in HEK 293 cells
# Format: cell-based
# Experimental Conditions: low frequency stimulation 0.067 Hz (tonic block), holding −80 mV to +10 mV, 5 mM Ba; read-out: IC50 at 0.067 Hz
Value Kind: IC50 (nM)

Here's what some known entries look like.
Molecule	Unit Label	Test Value
Cc1cc(C)cc(NCC(=O)NCC2CCN(C(=O)CCCCC(c3ccc(F)cc3)c3ccc(F)cc3)C2)c1 (stereo not shown)	nM	19
COc1cc(C(=O)N2CCC(CNC(=O)CCCCC(c3ccc(F)cc3)c3ccc(F)cc3)C2)cc(OC)c1OC (stereo not shown)	nM	59

1: CC(C)(C)c1cc(C(=O)NCC2CCN(C(=O)CCCCC(c3ccc(F)cc3)c3ccc(F)cc3)C2)cc(C(C)(C)C)c1O (stereo not shown)
2: CN(CC1CCN(C(c2ccccc2)c2ccccc2)C1)C(=O)CC(c1ccccc1)c1ccccc1 (stereo not shown)
Could you kindly indicate whether 1 or 2 has the higher IC50 value? // return label of chosen record 2
(2: 223 nM, 1: 49 nM)

* * *

# Tested Target: human α1G T-type channels (Homo sapiens, UniProt O43497)
# Construct: expressed in transfected cells
# Assay Details: Block of α1G T-type channels, whole-cell patch clamp in HEK cells
# Type: cell-based
# Experimental Conditions: inactivation protocol (voltage-dependent block); read-out: IC50 at −80 mV
pIC50: −log10 of the molar value.
Value Kind: pIC50

Molecule	pIC50
CN(CCN(c1ccccc1)c1ccccc1)CC1CCN(C(c2ccccc2)c2ccccc2)C1 (stereo not shown) [Compound P55]	7.74
COc1c(C(C)(C)C)cc(C(=O)NCC2CCN(C(=O)CCCCC(c3ccc(F)cc3)c3ccc(F)cc3)C2)cc1C(C)(C)C (stereo not shown) [Compound P13]	9.15

1: O=C(CN(c1ccccc1)c1ccccc1)NCC1CCN(C(c2ccccc2)c2ccccc2)C1 (stereo not shown) [Compound P45]
2: c1ccc(C(c2ccccc2)N2CCC(CN(CCN(c3ccccc3)c3ccccc3)CCN(c3ccccc3)c3ccccc3)C2)cc1 (stereo not shown) [Compound P59]
Given the two records 1 and 2 , choose the one whose pIC50 value is lower. // return label of chosen record 2
(2: 5.22, 1: 7.17)

* * *

# Tested Target: rat brain N-type calcium channel subunits (α1B+α2δ+β1b) (Rattus norvegicus)
# Construct: expressed in transfected cells; host or cells: HEK 293
# Assay Details: N-type calcium channel block, whole cell patch clamp in HEK 293 cells
# Format: cell-based
# Experimental Conditions: low frequency stimulation 0.067 Hz (tonic block), holding −80 mV to +10 mV, 5 mM Ba; read-out: IC50 at 0.067 Hz
pIC50: −log10 of the molar value.
Value Kind: pIC50

Molecule	Tested Target	Test Value
COc1cc(CN2CCC(CNCCCCCC(c3ccc(F)cc3)c3ccc(F)cc3)C2)cc(OC)c1OC (stereo not shown)	rat brain N-type calcium channel subunits (α1B+α2δ+β1b) (Rattus norvegicus)	6.67
CN(CC(=O)N(c1ccccc1)c1ccccc1)CC1CCN(C(c2ccccc2)c2ccccc2)C1 (stereo not shown)	rat brain N-type calcium channel subunits (α1B+α2δ+β1b) (Rattus norvegicus)	6.55
COc1cc(C(=O)N2CCC(CN(C)CCCCCC(c3ccc(F)cc3)c3ccc(F)cc3)C2)cc(OC)c1OC (stereo not shown)	rat brain N-type calcium channel subunits (α1B+α2δ+β1b) (Rattus norvegicus)	6.42

P: CN(C(=O)CN(CC(=O)N(C)c1ccccc1)CC1CCN(C(c2ccccc2)c2ccccc2)C1)c1ccccc1 (stereo not shown)
Q: CC(C)(C)c1cc(CNCC2CCN(CCCCCC(c3ccc(F)cc3)c3ccc(F)cc3)C2)cc(C(C)(C)C)c1 (stereo not shown)
Could you kindly indicate whether P or Q has the higher pIC50 value? // return label of chosen record Q
(Q: 7.55, P: 7.24)

* * *

# Tested Target: rat brain N-type calcium channel subunits (α1B+α2δ+β1b) (Rattus norvegicus)
# Construct: expressed in transfected cells; host or cells: HEK 293
# Assay Details: N-type calcium channel block, whole cell patch clamp in HEK 293 cells
# Format: cell-based
# Experimental Conditions: pulse frequency 0.2 Hz (frequency dependent block), holding −80 mV to +10 mV, 5 mM Ba; read-out: IC50 at 0.2 Hz
Value Kind: IC50 (µM)

Here's what some known entries look like.
Compound	Value Kind	Test Value
CC(C)(C)c1ccc(C(c2ccccc2)N2CCC(CNC(=O)CC(c3ccc(F)cc3)c3ccc(F)cc3)C2)cc1 (centres unmarked)	IC50	0.11
CN(CC1CCN(C(c2ccccc2)c2ccccc2)C1)C(=O)CC(c1ccccc1)c1ccccc1 (centres unmarked)	IC50	0.157
O=C(CN(CC(=O)N(c1ccccc1)c1ccccc1)CC1CCN(C(c2ccccc2)c2ccccc2)C1)N(c1ccccc1)c1ccccc1 (centres unmarked)	IC50	0.001
CN(CCN(c1ccccc1)c1ccccc1)CC1CCN(C(c2ccccc2)c2ccccc2)C1 (centres unmarked)	IC50	0.226
O=C(CC(c1ccc(F)cc1)c1ccc(F)cc1)NCC1CCN(C(c2ccccc2)c2ccccc2)C1 (centres unmarked)	IC50	0.056
O=C(CC(c1ccccc1)c1ccccc1)NCC1CCN(C(c2ccccc2)c2ccc(Cl)cc2)C1 (centres unmarked)	IC50	0.236

1: CN(C)CCOc1c(C(C)(C)C)cc(C(=O)N2CCC(CNC(=O)CCCCC(c3ccc(F)cc3)c3ccc(F)cc3)C2)cc1C(C)(C)C (centres unmarked)
2: O=C(CC(c1ccc(F)cc1)c1ccc(F)cc1)NCC1CCN(C(c2ccccc2)c2ccc(F)cc2)C1 (centres unmarked)
Given the two records 1 and 2 , choose the one whose IC50 value is lower. // return label of chosen record 2
